- TARGET_DESC: hGLP-1R (Homo sapiens, UniProt P43220)
- Sequence (P43220 24-463): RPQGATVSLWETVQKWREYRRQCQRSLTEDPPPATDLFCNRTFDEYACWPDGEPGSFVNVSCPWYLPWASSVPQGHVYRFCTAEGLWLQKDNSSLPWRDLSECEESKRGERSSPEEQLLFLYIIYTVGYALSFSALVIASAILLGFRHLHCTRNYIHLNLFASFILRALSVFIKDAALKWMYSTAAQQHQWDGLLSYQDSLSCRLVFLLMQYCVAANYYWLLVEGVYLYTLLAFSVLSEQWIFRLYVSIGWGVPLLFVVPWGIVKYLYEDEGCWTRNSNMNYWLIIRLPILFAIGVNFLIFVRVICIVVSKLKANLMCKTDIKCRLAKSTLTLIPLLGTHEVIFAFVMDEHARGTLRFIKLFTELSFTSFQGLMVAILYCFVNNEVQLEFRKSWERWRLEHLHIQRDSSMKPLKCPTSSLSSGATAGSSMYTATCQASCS
- METHOD: cell-based or functional assay
Non-standard residues stand in square brackets, D forms with d. No end group written: not given here. αMePhe(2-F) = C[C@](N)(Cc1ccccc1F)C(=O)O; αMeL = CC(C)C[C@](C)(N)C(=O)O; Aib = CC(C)(N)C(=O)O
REPORTED_METRIC: log10 of Relative cAMP EC50 (log10 of the value in nM)
All values: base-10 log of Relative cAMP EC50 in nM.

[[record]]
binder = "Y[Aib]QGTFTSDYSI[αMeL]LDKQAAKQFIEYLIA[Aib]GPSSGEPPPSEG-NH2 (not fully specified (residue 20)) [Example 349]"
endpoint_value = -0.26

[[record]]
binder = "Y[Aib]QGT[αMePhe(2-F)]TSDYSILLDKQAAKEFIEYLIEGGPSSGAPPPSEG-NH2 (not fully specified (residue 20)) [Example 340]"
endpoint_value = -0.19

[[record]]
binder = "YXQGTFTSDXSQXLDKKAQXAFIEYLIAGGPSSGEPPPSGSGE (synthetic construct; SITE 2: note = 2-Aminoisobutyric Acid; SITE 10: note = 3-(4-Pyridyl)-L-alanine; SITE 13: note = alpha-methyl-leucine; SITE 17: note = Lysine is chemically modified through conjugation of the epsilon-amino group of the Lysine side chain with (gamma-Glu)2-CO-(CH2)16-CO2H; SITE 20:) [Example 971]"
endpoint_value = 0.54

[[record]]
binder = "YXQGTXTSDXXIXLDXKAQXEFIEXLVEGGPSSGAPPPGGE (not fully specified; non-natural residues; AEEA-γGlu-C18 diacid acyl; C-terminal amide; synthetic construct; SITE 2: note = 2-Aminoisobutyric Acid; SITE 6: note = alpha-methyl-2-fluoro-L-phenylalanine …; SITE 10: note = 3-(4-Pyridyl)-L-alanine; SITE 11: note = alpha-methyl-L-serine; SITE 13: note = alpha-methyl-leucine; SITE 16: note = L-ornithine; SITE 17: note = Lysine is chemically mo) [Example 1154]"
endpoint_value = -0.46


Here is the next item to consider.
**Query** Field request: log10 of Relative cAMP EC50 | item: YXQGTXTSDXXIXLDXKAQXXFIEXLTEGGPSSGEPPPSGTE (synthetic construct; SITE 2: note = 2-Aminoisobutyric Acid; SITE 6: note = alpha-methyl-2-fluoro-L-phenylalanine; SITE 10: note = 3-(4-Pyridyl)-L-alanine; SITE 11: note = alpha-methyl-L-serine; SITE 13: note = alpha-methyl-leucine; SITE 16: note = L-ornithine; SITE 17: note = Lysine is chemically mo) [Example 542]
**Result** -0.41
